Reference source for all entries: BindingDB's records for patent US20250313563

Property: pIC50; scope: individual compounds
experimental.target: Glycogen synthase kinase-3 beta (Homo sapiens, UniProt P49841)
Sequence (P49841 whole entry): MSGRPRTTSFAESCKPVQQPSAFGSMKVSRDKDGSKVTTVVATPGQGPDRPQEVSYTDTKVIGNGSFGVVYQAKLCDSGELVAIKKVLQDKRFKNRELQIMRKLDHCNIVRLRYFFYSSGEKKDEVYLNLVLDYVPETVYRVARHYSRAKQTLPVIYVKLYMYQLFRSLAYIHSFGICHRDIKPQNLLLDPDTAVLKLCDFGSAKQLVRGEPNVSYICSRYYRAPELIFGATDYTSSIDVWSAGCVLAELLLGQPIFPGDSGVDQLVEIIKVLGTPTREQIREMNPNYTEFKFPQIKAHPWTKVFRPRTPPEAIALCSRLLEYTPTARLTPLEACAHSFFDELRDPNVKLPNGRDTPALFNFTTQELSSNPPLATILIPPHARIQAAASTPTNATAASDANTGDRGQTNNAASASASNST
pIC50: −log10 of the molar value.

Example compounds with recorded pIC50:
{"compound": "CCC1(c2cccc(C(F)(F)F)c2)C2=CN=NC2NC2=C1C(=O)N(c1ccc(C)cc1)CC2 (stereo unspecified)", "parameter": "pIC50", "experimental.value": "6.00 to 7.00"}
{"compound": "CCC1(c2cccc(N(C)c3ccnc(C)c3)c2)C2=CN=NC2NC2=C1C(=O)CC(C)(C)C2 (stereo unspecified)", "parameter": "pIC50", "experimental.value": "5.30 to 6.00"}
{"compound": "CN1C[C@]2(C3=C(CC(C)(C)CC3=O)NC3N=NC(CC(C)(C)C)=C32)c2ccccc21 (stereo partly specified)", "parameter": "pIC50", "experimental.value": "6.00 to 7.00"}

Entry CC[C@]1(c2cccc(N(C)c3cccc(F)n3)c2)C2=CN=NC2NC2=C1C(=O)CC(C)(C)C2 (stereo partly specified) : pIC50 on Glycogen synthase kinase-3 beta (Homo sapiens, UniProt P49841) = > 7.00

Entry CCC1(c2cccc(-c3cnn4c3CCCC4)c2)C2=CN=NC2NC2=C1C(=O)NC(C)(C)C2 (stereo unspecified) : pIC50 on Glycogen synthase kinase-3 beta (Homo sapiens, UniProt P49841) = 6.00 to 7.00

Entry CC[C@@]1(c2cccc(OC)c2)C2=C(CC(C)(C)CC2=O)NC2N=NC(C(=O)OC)=C21 (stereo partly specified) : pIC50 on Glycogen synthase kinase-3 beta (Homo sapiens, UniProt P49841) = 6.00 to 7.00

----------
experimental.target: Glycogen synthase kinase-3 alpha (Homo sapiens, UniProt P49840)
Sequence (P49840 whole entry): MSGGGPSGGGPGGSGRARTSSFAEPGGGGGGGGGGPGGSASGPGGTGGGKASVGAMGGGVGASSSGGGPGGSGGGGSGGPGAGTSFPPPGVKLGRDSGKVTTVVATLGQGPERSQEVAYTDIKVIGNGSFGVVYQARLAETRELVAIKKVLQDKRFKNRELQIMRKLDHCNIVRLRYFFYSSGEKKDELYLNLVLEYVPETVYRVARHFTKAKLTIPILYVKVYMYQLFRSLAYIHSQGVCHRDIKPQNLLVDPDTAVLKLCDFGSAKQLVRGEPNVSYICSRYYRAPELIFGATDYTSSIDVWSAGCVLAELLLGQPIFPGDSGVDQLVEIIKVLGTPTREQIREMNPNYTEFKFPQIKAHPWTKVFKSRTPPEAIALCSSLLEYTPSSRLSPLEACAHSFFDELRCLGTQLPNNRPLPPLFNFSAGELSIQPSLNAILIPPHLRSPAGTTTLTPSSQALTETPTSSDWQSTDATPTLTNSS
pIC50: −log10 of the molar value.
Property: pIC50; scope: individual compounds

Example compounds with recorded pIC50:
{"compound": "CC[C@]1(c2cccc(-c3ccnc(C)c3)c2)C2=CN=NC2NC2=C1C(=O)NC1(CCC1)C2 (stereo partly drawn)", "pIC50": "5.30 to 6.00"}
{"compound": "CCC1(c2cccc(Oc3ncccn3)c2)C2=C(CC(C)(C)NC2=O)NC2N=NC(C(F)(F)F)=C21 (stereo not drawn)", "pIC50": "> 7.00"}

Entry CC1(C)CC(=O)C2=C(C1)NC1=C(CN=N1)C21COC2(CN(S(=O)(=O)c3ccccc3)C2)C1 (stereo not drawn) : pIC50 on Glycogen synthase kinase-3 alpha (Homo sapiens, UniProt P49840) = 6.00 to 7.00

Entry CCC1(c2cccc(-c3cnn4c3CCC4)c2)C2=CN=NC2NC2=C1C(=O)CC(C)(C)C2 (stereo not drawn) : pIC50 on Glycogen synthase kinase-3 alpha (Homo sapiens, UniProt P49840) = > 7.00

Entry CC[C@@]1(c2cccc(N(C)c3ncccn3)c2)C2=C(CC(C)(C)NC2=O)NC2N=NC(Cl)=C21 (stereo partly drawn) : pIC50 on Glycogen synthase kinase-3 alpha (Homo sapiens, UniProt P49840) = 6.00 to 7.00

Entry CC[C@@]1(c2cccc(-c3cc(C)ncc3F)c2)C2=CN=NC2NC2=C1C(=O)NC(C)(C)C2 (stereo partly drawn) : pIC50 on Glycogen synthase kinase-3 alpha (Homo sapiens, UniProt P49840) = 6.00 to 7.00

Entry CCC1(c2cccc(C(C)c3ncccn3)c2)C2=CN=NC2NC2=C1C(=O)CC(C)(C)C2 (stereo not drawn) : pIC50 on Glycogen synthase kinase-3 alpha (Homo sapiens, UniProt P49840) = > 7.00

Entry CCC1(c2cccc(-c3cnn4c3CCCC4)c2)C2=C(CC(C)(C)NC2=O)NC2N=NC(C(F)(F)F)=C21 (stereo not drawn) : pIC50 on Glycogen synthase kinase-3 alpha (Homo sapiens, UniProt P49840) = > 7.00

Entry CC[C@]1(c2cccc(-c3ccnc4cc(Cl)c(C)cc34)c2)C2=CN=NC2NC2=C1C(=O)NC(C)(C)C2 (stereo partly drawn) : pIC50 on Glycogen synthase kinase-3 alpha (Homo sapiens, UniProt P49840) = 6.00 to 7.00

Entry CC1(C)CC(=O)C2=C(C1)NC1=C(CN=N1)C21COC2(CN(C(=O)CC3CCC3)C2)C1 (stereo not drawn) : pIC50 on Glycogen synthase kinase-3 alpha (Homo sapiens, UniProt P49840) = > 7.00

Entry CC[C@]1(c2cccc(C(F)F)c2)C2=CN=NC2NC2=C1C(=O)NC(C)(C)C2 (stereo partly drawn) : pIC50 on Glycogen synthase kinase-3 alpha (Homo sapiens, UniProt P49840) = 5.30 to 6.00

Entry CC1(C)CC(=O)C2=C(C1)NC1N=NC=C1[C@@]21CCCc2c(-c3ccncc3)cccc21 (stereo partly drawn) : pIC50 on Glycogen synthase kinase-3 alpha (Homo sapiens, UniProt P49840) = 5.30 to 6.00

Entry CC[C@]1(c2cccc(-c3ccnc(C)c3)c2)C2=CN=NC2NC2=C1C(=O)N[C@]1(CCOC1)C2 (stereo partly drawn) : pIC50 on Glycogen synthase kinase-3 alpha (Homo sapiens, UniProt P49840) = 5.30 to 6.00

----------
experimental.target: Glycogen synthase kinase-3 beta (Homo sapiens)
assay.procedure: TR-FRET Assay
Description: The assay was performed in a white, 384 well, low volume, flat bottom plate (Grenier). […] The kinase activity was quenched with 2 μL of 250 mM EDTA. A 10 μL volume of 40 nM Strepavidin-d2, 2 nM Tb2+-pSer641 antibody in TR-FRET Detection Buffer (Invitrogen) was then added.
pIC50: −log10 of the molar value.
parameter: pIC50

{"compound": "CC1(C)CC(=O)C2=C(C1)NC1=C(CN=N1)C21CN(S(=O)(=O)C2CC2)C1 [US20250313563, Compound 913259]", "experimental.target": "Glycogen synthase kinase-3 beta (Homo sapiens)", "parameter": "pIC50", "experimental.value": "> 7.00"}
{"compound": "CCc1cc(-c2cccc([C@@]3(CC)C4=CN=NC4NC4=C3C(=O)NC(C)(C)C4)c2)ccn1 (stereo partly specified) [US20250313563, Compound 948360]", "experimental.target": "Glycogen synthase kinase-3 beta (Homo sapiens)", "parameter": "pIC50", "experimental.value": "< 5.30"}
{"compound": "CC[C@]1(c2cccc(-c3ccncc3F)c2)C2=C(CC(C)(C)NC2=O)NC2N=NC(Cl)=C21 (stereo partly specified) [US20250313563, Compound 949756]", "experimental.target": "Glycogen synthase kinase-3 beta (Homo sapiens)", "parameter": "pIC50", "experimental.value": "< 5.30"}
{"compound": "CC1(C)CC(=O)C2=C(C1)NC1=C(CN=N1)[C@@]21CCOC1 [US20250313563, Compound 877314]", "experimental.target": "Glycogen synthase kinase-3 beta (Homo sapiens)", "parameter": "pIC50", "experimental.value": "5.30 to 6.00"}
{"compound": "CC(C)(C)CC1N=NC2=C1C1(CN(S(=O)(=O)CC3CC3)C1)C1=C(CC3(CCC3)CC1=O)N2 (stereo unspecified) [US20250313563, Compound 107829]", "experimental.target": "Glycogen synthase kinase-3 beta (Homo sapiens)", "parameter": "pIC50", "experimental.value": "6.00 to 7.00"}
{"compound": "CC1(C)CC(=O)C2=C(C1)NC1=C(CN=N1)[C@]21COC2(CN(C(=O)Cc3ccccc3)C2)C1 [US20250313563, Compound 948036]", "experimental.target": "Glycogen synthase kinase-3 beta (Homo sapiens)", "parameter": "pIC50", "experimental.value": "6.00 to 7.00"}
{"compound": "CC1(C)CC(=O)C2=C(C1)NC1=C(CN=N1)[C@@]21COC2(CN(C(=O)C(C)(F)F)C2)C1 [US20250313563, Compound 947839]", "experimental.target": "Glycogen synthase kinase-3 beta (Homo sapiens)", "parameter": "pIC50", "experimental.value": "6.00 to 7.00"}
{"compound": "C[C@@H]1CC(=O)C2=C(C1)NC1=C(CN=N1)C21CCOCC1 [US20250313563, Compound 912079]", "experimental.target": "Glycogen synthase kinase-3 beta (Homo sapiens)", "parameter": "pIC50", "experimental.value": "6.00 to 7.00"}

Entry CC[C@@]1(c2cccc(N(c3cccnc3)C(C)C)c2)C2=CN=NC2NC2=C1C(=O)CC(C)(C)C2 (stereo partly specified) [US20250313563, Compound 917087] : pIC50 on Glycogen synthase kinase-3 beta (Homo sapiens) = 5.30 to 6.00

Entry CC1(C)CC(=O)C2=C(C1)NC1=C(CN=N1)[C@]21C[C@@H](n2cccn2)C1 [US20250313563, Compound 884004] : pIC50 on Glycogen synthase kinase-3 beta (Homo sapiens) = > 7.00

Entry CC1(C)CC(=O)C2=C(C1)NC1=C(CN=N1)C21COC2(CN(C(=O)CC3CC3)C2)C1 (stereo unspecified) [US20250313563, Compound 947298] : pIC50 on Glycogen synthase kinase-3 beta (Homo sapiens) = > 7.00

Entry CC[C@@]1(c2cccc(N(C)C(=O)c3ccn(C)n3)c2)C2=CN=NC2NC2=C1C(=O)CC(C)(C)C2 (stereo partly specified) [US20250313563, Compound 929442] : pIC50 on Glycogen synthase kinase-3 beta (Homo sapiens) = 6.00 to 7.00

Entry CC(C)(C)CC1=C2C(N=N1)NC1=C(C(=O)CC(C)(C)C1)[C@@]21COc2ccccc21 (stereo partly specified) [US20250313563, Compound 117093] : pIC50 on Glycogen synthase kinase-3 beta (Homo sapiens) = 6.00 to 7.00

Entry CC[C@]1(c2cccc(-c3cc(C)nn3C)c2)C2=C(CC(C)(C)CC2=O)NC2N=NC(C(F)(F)F)=C21 (stereo partly specified) [US20250313563, Compound 947383] : pIC50 on Glycogen synthase kinase-3 beta (Homo sapiens) = < 5.30

Entry CC[C@@]1(c2cccc(C(F)(F)F)c2)C2=C(N=NC2)NC2=C1C(=O)N(Cc1ccccc1)[C@@H]2C [US20250313563, Compound 930332] : pIC50 on Glycogen synthase kinase-3 beta (Homo sapiens) = < 5.30
